Test system: SF-268 CNS
test.description: NCI tumour cell line growth inhibition, 48 h; in the data active means GI50 below about 0.43 µM; inactive means the rest
Labels: active, inactive

1) CC/C=C\C[C@H](F)C/C=C1/C(=O)C=C[C@@H]1C/C=C\CCCC(=O)OC: inactive
2) CC(=O)/C(=C/c1ccccc1)C(=O)CC(C)C: inactive
3) COc1cc(C(=O)O[C@H](C(=O)NCCCNC(=O)[C@@H](OC(=O)c2cc(OC)cc3c(C)cccc23)[C@]2(C)CO2)[C@]2(C)CO2)c2cccc(C)c2c1: active
4) COC(=O)c1ccc2c(c1)C(=O)c1c-2n(CCCCl)c(=O)c2cc([N+](=O)[O-])ccc12: inactive
